# study_system: Human GPR120 short form (Homo sapiens)
# Construct: expressed in transfected cells
# Sequence (Q5NUL3 whole entry): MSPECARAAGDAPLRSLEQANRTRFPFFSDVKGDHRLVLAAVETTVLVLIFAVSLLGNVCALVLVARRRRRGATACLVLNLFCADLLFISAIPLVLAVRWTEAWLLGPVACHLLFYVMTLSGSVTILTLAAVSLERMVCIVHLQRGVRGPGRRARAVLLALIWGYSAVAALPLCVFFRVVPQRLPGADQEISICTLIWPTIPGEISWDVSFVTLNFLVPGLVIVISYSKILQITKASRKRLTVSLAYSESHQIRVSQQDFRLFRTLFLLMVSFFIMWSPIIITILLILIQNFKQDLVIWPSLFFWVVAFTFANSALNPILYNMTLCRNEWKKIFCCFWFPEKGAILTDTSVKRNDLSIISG
# test_description: Human GPR120 calcium flux assay, Procedure Calcium B (4200 cells/well)
# Format: cell-based
parameter: pEC50
Note on pEC50: it is the negative log10 of concentration, concentration in mol/L.

Solved cases below.
| compound | pEC50 |
| --- | --- |
| CCOc1ccc(C2=C(COc3ccc(CCC(=O)O)cc3C)CCC2)cn1 | 6.28 |
| O=C(O)CCc1ccc(OCC2=C(c3ccc(F)cc3)CCC(F)(F)C2)cc1 | 6.67 |
| COc1ncc(C2=C(COc3ccc(CCC(=O)O)cc3C)CCC2)cc1F | 7.24 |
| Cc1c(CCC(=O)O)ccc(OCC2=C(c3ccc(F)cc3F)CC(F)(F)C2)c1C | 7.31 |
| Cc1cc(OCC2=C(Cc3ccccc3)CC(F)(F)C2)c(F)cc1CCC(=O)O | 6.18 |
| O=C(O)CCc1cc(F)c(OCC2=C(c3ccc(Cl)cc3)CCC2)c(F)c1 | 6.99 |

Given item N#Cc1cc(OCC2=C(C3CCCC3)CCC2)ccc1CCC(=O)O , the value recorded as its pEC50 is 5.59
